Assay: Cytotoxicity against human HuH-7-Luc/Neo-ET cells
Type: cell-based
Settings: read-out: TC50 (the source's name)
measurement kind: CC50

CC(C)OC(=O)[C@H](C)N[P@@](=O)(Oc1ccccc1)O[C@@H](C)[C@H]1O[C@@H](n2ccc(=O)[nH]c2=O)[C@](C)(O)[C@@H]1O | > 100 µM
CC(C)OC(=O)[C@H](C)N[P@](=O)(OC[C@H]1O[C@@H](n2ccc(=O)[nH]c2=O)[C@](C)(O)[C@@H]1O)Oc1ccccc1 | 85.6 µM
CC(C)OC(=O)[C@H](C)N[P@@](=O)(Oc1ccccc1)O[C@H](C)[C@H]1O[C@@H](n2ccc(=O)[nH]c2=O)[C@](C)(O)[C@@H]1O | > 100 µM
CCCCCCCCCC(=O)Oc1ccc(COP(=O)(OCc2ccc(OC(=O)CCCCCCCCC)cc2)OP(=O)([O-])O[C@@H](C)[C@H]2O[C@@H](n3ccc(=O)[nH]c3=O)[C@](C)(O)[C@@H]2O)cc1.CCCC[N+](CCCC)(CCCC)CCCC | > 83.2 µM
CCCCCCCCCC(=O)Oc1ccc(COP(=O)(OCc2ccc(OC(=O)CCCCCCCCC)cc2)OP(=O)([O-])O[C@H](C)[C@H]2O[C@@H](n3ccc(=O)[nH]c3=O)[C@](C)(O)[C@@H]2O)cc1.CCCC[N+](CCCC)(CCCC)CCCC | > 100 µM
CC(C)OC(=O)[C@H](C)N[P@](=O)(OC[C@H]1O[C@@H](n2ccc(=O)[nH]c2=O)[C@](C)(F)[C@@H]1O)Oc1ccccc1 [SOFOSBUVIR] | > 1 µM
CCCCCCCCCC(=O)Oc1ccc(COP(=O)(OCc2ccc(OC(=O)CCCCCCCCC)cc2)OP(=O)([O-])OC[C@H]2O[C@@H](n3ccc(=O)[nH]c3=O)[C@](C)(O)[C@@H]2O)cc1.CCCC[N+](CCCC)(CCCC)CCCC | > 100 µM
